Target Or Test System: human 5-HT2C (Homo sapiens, UniProt P28335)
Sequence (P28335 33-458): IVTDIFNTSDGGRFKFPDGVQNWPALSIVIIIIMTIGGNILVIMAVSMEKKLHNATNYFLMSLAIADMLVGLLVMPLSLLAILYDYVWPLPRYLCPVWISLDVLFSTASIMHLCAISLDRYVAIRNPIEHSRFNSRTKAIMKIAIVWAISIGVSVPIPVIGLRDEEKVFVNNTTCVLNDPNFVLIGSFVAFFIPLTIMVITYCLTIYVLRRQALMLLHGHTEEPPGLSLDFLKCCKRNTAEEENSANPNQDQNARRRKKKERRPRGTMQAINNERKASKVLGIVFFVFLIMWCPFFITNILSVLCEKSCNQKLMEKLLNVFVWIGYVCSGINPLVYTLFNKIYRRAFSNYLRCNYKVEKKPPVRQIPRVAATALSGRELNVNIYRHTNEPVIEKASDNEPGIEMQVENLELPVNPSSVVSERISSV
Assay Details: Functional activity, FLIPR calcium assay, CHO cells expressing human 5-HT2C
Test Parameters: CHO cells, FLIPR, Fluo-3-AM; read-out: h5-HT2C EC50
Counter-ions that a name gives are not always drawn.
Reported EC50 values are given for each entry in this list.
Number in nM, nothing else.

Example entries and their recorded answers appear below.
CCc1nn(C[C@H](C)N)c2cc(Br)ccc12 [Example 7, Fumarate]
88
CCc1nn(C[C@H](C)N)c2cc(SC)ccc12 [Example 8, Fumarate]
8

Q: # lookup: EC50 of Cc1nn(C[C@H](C)N)c2cc(Cl)c(F)cc12 [Example 4, Fumarate]
Result: 48
